Where do these numbers come from? They come from patent US20210024490A1.

Measured IC50, listed per entry for reference.
measured-on: human mineralocorticoid receptor (MR) (Homo sapiens)
Sequence (P08235 734-984 limits assumed): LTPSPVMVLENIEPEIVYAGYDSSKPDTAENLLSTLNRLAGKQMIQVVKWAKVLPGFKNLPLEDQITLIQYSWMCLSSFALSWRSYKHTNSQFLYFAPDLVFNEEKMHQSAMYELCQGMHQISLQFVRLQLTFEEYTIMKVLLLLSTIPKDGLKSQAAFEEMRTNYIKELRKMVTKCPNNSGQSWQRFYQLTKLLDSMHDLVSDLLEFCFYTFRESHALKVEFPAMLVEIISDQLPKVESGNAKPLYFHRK
method: Cellular in vitro assay to determine the inhibitory MR activity (GAL4-steroid hormone receptor chimera, luciferase reporter, CHO K1 cells)
condition-label: antagonism of aldosterone-stimulated GAL4-MR chimera

These solved cases illustrate the format of a correct answer.
{"columns": ["compound", "IC50"],
 "data": [
  ["CCOc1ncc(C)c2c1[C@H](c1ccc(C#N)cc1OC)C(C(N)=O)=C(C)N2", "0.0277 µM"],
  ["CCOc1ncc(C)c2nc(C)c(C(N)=O)c(-c3ccc(C#N)cc3OC)c12 (single isomer, unassigned) [M1a (S)]", "9.33 µM"]
]}

Here's the next entry for you.
Provide only the value of recorded IC50 for CCOc1ncc(C)c2nc(C)c(C(N)=O)c(-c3ccc(C#N)cc3OC)c12 (single isomer, unassigned) [M1b (R)]
> 10 µM
